System: MKL-1 cells (VP-MCC)
Experiment: qHTS cell viability (CellTiter-Glo, 72 h; primary and follow-up small molecule screen)
Format: cell-based, human
# note: exactly 400 is not below, so it is N; use Y for Area under the dose-response curve (AUC) MKL-1 Replicate 3 strictly under it

(Q) Decide: Area under the dose-response curve (AUC) MKL-1 Replicate 3 of C[C@H]1O[C@@H](O[C@H]2[C@@H](O)C[C@H](O[C@H]3[C@@H](O)C[C@H](O[C@H]4CC[C@@]5(C)[C@H](CC[C@@H]6[C@@H]5CC[C@]5(C)[C@@H](C7=CC(=O)OC7)CC[C@]65O)C4)O[C@@H]3C)O[C@@H]2C)C[C@H](O)[C@@H]1O [Digitoxin] strictly below 400?
(A) Y

(Q) Determine whether this molecule shows Area under the dose-response curve (AUC) MKL-1 Replicate 3 lower than 400 (ties excluded): O=C(/C=C/c1ccc(/C=C/C(=O)Nc2ccc(C3=NCCN3)cc2)cc1)Nc1ccc(C2=NCCN2)cc1 [GW 4869]
(A) N

(Q) Consider the molecule CS[C@H]1SC[C@H]2C(=O)N(C)[C@@H](C(C)C)C(=O)OC[C@@H](NC(=O)c3cnc4ccccc4n3)C(=O)N[C@@H](C)C(=O)N(C)[C@@H]1C(=O)N(C)[C@@H](C(C)C)C(=O)OC[C@@H](NC(=O)c1cnc3ccccc3n1)C(=O)N[C@@H](C)C(=O)N2C [Echinomycin] . Is its Area under the dose-response curve (AUC) MKL-1 Replicate 3 strictly less than 400?
(A) Y

(Q) Is it true that Area under the dose-response curve (AUC) MKL-1 Replicate 3 reported for O=C1Nc2cc(Br)ccc2/C1=C1/Nc2ccccc2/C1=N\O [BIO] is less than 400?
(A) N

(Q) Area under the dose-response curve (AUC) MKL-1 Replicate 3 under 400? Item: CC(=O)C1=C(O)[C@@H]2[C@H]3c4c[nH]c5cccc(c45)C[C@H]3C(C)(C)N2C1=O [Cyclopiazonic acid]
(A) N

(Q) In the record for CC(C)(C)CC(C)(C)c1ccc(OCCOCC[N+](C)(C)Cc2ccccc2)cc1 [Benzethonium chloride] , is Area under the dose-response curve (AUC) MKL-1 Replicate 3 less than 400?
(A) Y

* * *

Tested on: NIH-3T3 cells
Experiment: qHTS cell viability (CellTiter-Glo, 72 h; primary screen), control cell line
Type: cell-based, mouse
Conditions: NPC library; qHTS dose-response AUC, NIH3T3 control
Give NIH3T3_AUC for every item shown.
Output: the number by itself.

# lookup: O=C(CCCCCCCCC#CI)Oc1ccccc1 [Phenyl 11-iodo-10-undecynoate] on NIH-3T3 cells, NIH3T3_AUC = 495.803

Fill in: NIH-3T3 cells NIH3T3_AUC for CCCC(=O)OC[C@@H](OC(=O)CCC)[C@@H](OC(=O)CCC)[C@H](Cn1c2nc(=O)[nH]c(=O)c-2nc2cc(C)c(C)cc21)OC(=O)CCC [Riboflavin tetrabutyrate] = 473.017

The compound COc1c(C)c2c(c(O)c1C/C=C(\C)CCC(=O)OCCN1CCOCC1)C(=O)OC2 [Mycophenolate mofetil] , when measured on NIH-3T3 cells, yielded NIH3T3_AUC of 433.09

Kindly note: NIH-3T3 cells, CCOC(=O)[C@H](CCc1ccccc1)N[C@@H](C)C(=O)N1CCC[C@H]1C(=O)O , NIH3T3_AUC value reported: 481.677

Value (NIH3T3_AUC, NIH-3T3 cells) for record Cl.Cl.Fc1ccc(C(OCCN2CCN(CCCc3ccccc3)CC2)c2ccc(F)cc2)cc1 [GBR 12909 dihydrochloride] = 436.091

NIH-3T3 cells NIH3T3_AUC of CNCc1ccccc1.Cl [N-Methylbenzylamine hydrochloride] is 497.435

The compound CCCCCC(=O)O[C@]1(C(C)=O)CC[C@H]2[C@@H]3CCC4=CC(=O)CC[C@]4(C)[C@H]3CC[C@@]21C [Hydroxyprogesterone caproate] on NIH-3T3 cells: NIH3T3_AUC was 480.983

* * *

Test system: MKL-2 cells (VP-MCC)
Test: qHTS cell viability (CellTiter-Glo, 72 h; primary and follow-up small molecule screen)
Type: cell-based, human
Settings: MKL2, 72h, Log (M) -7.24494
For each record, write down the corresponding Percent viability.
Entry rule: numbers only, all in %.

Recorded Percent viability (molecule Cc1cc(Nc2cc(N3CCN(C)CC3)nc(Sc3ccc(NC(=O)C4CC4)cc3)n2)[nH]n1 [Tozasertib, reference compound] ): 51.8

Item: CCn1cc(-c2ccnc3[nH]c(-c4cccc(CN(C)C)c4)cc23)c(-c2ccc(NC(=O)N(C)C)cc2)n1 [GSK-1070916A, reference compound] | Percent viability: 33.8

What the record says about O=C(Nc1cccc(Cl)c1)Nc1ncc(CCNc2ncnc3ccsc23)s1 [SNS-314, reference compound] : Percent viability is 43.4

Documented Percent viability of CCS(=O)(=O)c1cccc(-c2cc(C(=O)NC3CCN(C)CC3)c(C)c3[nH]c4ncc(C)cc4c23)c1 [TAK-901, reference compound] : 44.0

* * *

Exercise: for every item that follows, state its recorded Control-MCC.
Tested on: six MCC cell lines and four control cell lines
Assay: qHTS cell viability, all 10 cell lines screened
Format: cell-based
Details: NPC library, Control AUC minus MCC AUC (therapeutic window)
Structures can show the parent of a compound that is named as a salt.
Format: numeric value only, no unit, no commentary.

Data point: Nc1ccc(C(=O)NCC(=O)O)cc1 ; Control-MCC = 55.5673

For record O=C1CC2(CCCC2)CC(=O)N1CCCCN1CCN(c2ncccn2)CC1 the listed Control-MCC is 50.4353

compound COc1ccc(CCN(C)CCCC(C#N)(c2cc(OC)c(OC)c(OC)c2)C(C)C)cc1OC (stereo not drawn) [Gallopamil hydrochloride] , Control-MCC observed: 45.0671

Sure, the documented Control-MCC for CSc1ccc2c(c1)N(CCC1CCCCN1C)c1ccccc1S2 (stereo not drawn) is 60.2868

// sample O=S1(=O)OC(c2ccc(O)cc2)(c2ccc(O)cc2)c2ccccc21 , its Control-MCC was 46.071

Reported Control-MCC of Oc1ccc(C2CNCCc3c2cc(O)c(O)c3Cl)cc1 (stereo not drawn) : 47.2727

* * *

Kindly state Area under the dose-response curve (AUC) UISO Replicate 2 for each of the entries shown.
Tested on: UISO cells (VN-MCC)
Test: qHTS cell viability (CellTiter-Glo, 72 h; primary and follow-up small molecule screen)
Type: cell-based, human
Conditions: follow-up screen; UISO; replicate 2
Reply with the value as a number alone.

Nc1ncnc2c1ncn2[C@@H]1O[C@H](CO)[C@@H](O)[C@H]1O yielded Area under the dose-response curve (AUC) UISO Replicate 2 of 502.8

Recorded Area under the dose-response curve (AUC) UISO Replicate 2 (molecule CO/C1=C\C(C)=C\[C@@H](C)[C@@H](O)[C@@H](C)C/C(C)=C/C=C/[C@H](OC)[C@@H]([C@@H](C)[C@@H](O)[C@H](C)[C@@]2(O)C[C@@H](O)[C@H](C)[C@@H](C(C)C)O2)OC1=O ): 264.4

Area under the dose-response curve (AUC) UISO Replicate 2 measured on Cc1cc(Nc2cc(N3CCN(C)CC3)nc(Sc3ccc(NC(=O)C4CC4)cc3)n2)[nH]n1 [Tozasertib, reference compound] = 389.2

Measured Area under the dose-response curve (AUC) UISO Replicate 2, CO[C@H]1/C=C/O[C@@]2(C)Oc3c(C)c(O)c4c(O)c(c(/C=N/N5CCN(C6CCCC6)CC5)c(O)c4c3C2=O)NC(=O)/C(C)=C\C=C\[C@H](C)[C@H](O)[C@@H](C)[C@@H](O)[C@@H](C)[C@H](OC(C)=O)[C@@H]1C : 482.1

The recorded Area under the dose-response curve (AUC) UISO Replicate 2 for entry Nc1ccc(C(=O)Nc2ccccc2N)cc1 equals 432.3

Lab note: COc1c(C)c2c(c(O)c1C/C=C(\C)CCC(=O)OCCN1CCOCC1)C(=O)OC2 [Mycophenolate mofetil] gave Area under the dose-response curve (AUC) UISO Replicate 2 of 378.4

* * *

Consider the following compounds; for each one, report its HEK293T_AUC.
Test system: HEK293T cells
Test: qHTS cell viability (CellTiter-Glo, 72 h; primary screen), control cell line
Assay type: cell-based, human
Structures can show the parent of a compound that is named as a salt.

Looking up O=c1cccc2n1C[C@@H]1CNC[C@H]2C1 [Cytisine] , I found its HEK293T_AUC recorded as 476.432

Recorded result, Cl.Oc1ccc2c3c1O[C@H]1[C@@H](O)C=C[C@H]4[C@@H](C2)NCC[C@@]341 [N-Normorphine hydrochloride] , HEK293T_AUC: 480.826

Note to self: HEK293T_AUC recorded for COc1ccc2c3c1O[C@H]1[C@@H](O)C=C[C@H]4[C@@H](C2)N(C)CC[C@@]341 [Codeine hydrochloride] was 441.34

Just so you know, measured HEK293T_AUC for CNC(=O)[C@H](CC1=CN=C2C=CCC=C12)NC(=O)[C@@H](CC(=O)NO)CC(C)C [GM-6001] came out at 473.463

Reported HEK293T_AUC of CC(=O)OC1(c2ccccc2)CCN(CCc2ccccc2)CC1 : 449.554

Form field HEK293T_AUC, entry CNC(C)Cc1ccc2c(c1)OCO2.Cl (stereo not shown) : 483.458

Per the records, this compound ( CC[C@H]1C[C@@H]2C[C@H]3c4[nH]c5ccc(OC)cc5c4CCN(C2)[C@@H]13.Cl [Ibogaine hydrochloride] ) has HEK293T_AUC equal to 455.404

Entry CS(=O)(=O)Oc1ccc2c(NC(N)=O)c(C(=O)c3ccc(Cl)cc3Cl)oc2c1 [Lirimilast] , HEK293T_AUC reported as 473.552

# compound CC[N+](CC)(CC)CCOc1ccc(/C=C/c2ccccc2)cc1 [Stilonium iodide] ; its HEK293T_AUC = 375.842

Reported HEK293T_AUC ( CCOc1cc(N2CCC(O)CC2)ccc1Nc1ncc2c(n1)N(C)c1ccccc1C(=O)N2C [XMD8-92] ) = 449.91

HEK293T_AUC reading for CCC(=O)O[C@@H]1C=C2CCC3C(CCC4(C)C3CC[C@@H]4OC(=O)CC)C2CC1 (stereo partly shown) [Bolandiol dipropionate] : 471.071

Short answer for COC[C@H]1OC(=O)c2coc3c2[C@@]1(C)C1=C(C3=O)[C@@H]2CC[C@H](O)[C@@]2(C)C[C@H]1OC(C)=O [17_-hydroxy Wortmannin] : HEK293T_AUC was 476.067

Lab note: C#CCN(C)[C@H](C)Cc1ccccc1 [Selegiline hydrochloride] gave HEK293T_AUC of 439.797

Looking up COc1cc(C[C@@H](C)N)c(OC)cc1C.Cl , I see its HEK293T_AUC listed as 304.503

Cc1ncc(CNC(=O)N(CCCl)N=O)c(N)n1 [Nimustine] yielded HEK293T_AUC of 481.182

Quick note, HEK293T_AUC for N[C@@H](Cc1ccc(N(CCCl)CCCl)cc1)C(=O)O [Melphalan] landed at 460.279
